Consider the following compounds and their measured growth readings.
- Tested on: OVCAR-3 ovarian
- test description: NCI-60 one-dose screen, 48 h (100 = growth as untreated, 0 = no growth, -100 = all killed)
- stated conditions: 10 µM unless noted
This is part of a sample that, as a whole, favours compounds with a hit. Of some 83,000 tested, about 20% had one in any assay.

smiles str: O=C(Nc1ccccc1[N+](=O)[O-])c1ccc(Cl)c(Cl)c1
growth, %: 97
--
smiles str: CC1=C2[C@@H](CC1)[C@]1(C)O[C@@](c3ccccc3)(C[C@H]1OC(=O)CO)[C@H]2OC(=O)/C=C/c1ccccc1
growth, %: 97.6
--
smiles str: CC(=O)c1sc2sc(C(C)=O)c(C)c2c1C
growth, %: 110
--
smiles str: Cn1cc(-c2csc(-c3c[nH]c4ccc(F)cc34)n2)c2ccnc(Cl)c21
growth, %: 73.4
--
smiles str: CCOC(=O)c1cnc2c(N=Nc3ccc(OC)cc3)c(N)nn2c1N
growth, %: 113
--
smiles str: N#Cc1c(Nc2ccc(N3CCOCC3)cc2)nc(SCC(=O)c2ccc(Br)cc2)nc1-c1ccccc1
growth, %: 105
